system_under_test: Transthyretin (Homo sapiens) (UniProt P02766)
measurement_protocol: Percentage compound remaining at the conclusion of the acid-mediated fibril formation assay (72 h), assay conditions compound (7.2 uM), WT-TTR (3.6 uM, pH 4.4, 37C)
observation_type: Activity (%)

{"structure_notation": "O=C(O)c1ccc(O/N=C/c2c(Cl)cccc2Cl)cc1", "observation_type": "Activity", "meas_value": 81}
{"structure_notation": "O=C(O)c1cccc(O/N=C/c2ccccc2C(F)(F)F)c1", "observation_type": "Activity", "meas_value": 88}
{"structure_notation": "O=C(O)c1ccc(O/N=C/c2cc(I)c(O)c(I)c2)cc1", "observation_type": "Activity", "meas_value": 83}
{"structure_notation": "O=C(O)c1ccc(O/N=C/c2cc(Br)c(O)c(Br)c2)cc1", "observation_type": "Activity", "meas_value": 81}
{"structure_notation": "Oc1c(Br)cc(/C=N/Oc2ccccc2)cc1Br", "observation_type": "Activity", "meas_value": 76}
{"structure_notation": "Oc1c(I)cc(/C=N/Oc2ccccc2C(F)(F)F)cc1I", "observation_type": "Activity", "meas_value": 100}

* * *

system_under_test: Transthyretin (Homo sapiens)
measurement_protocol: Percentage of WT-TTR (3.6 uM) amyloid fibril formation at pH 4.4 upon incubation with the compound (7.2 uM)
observation_type: Formation (%)

Below are worked cases with known answers.
{"structure_notation": "O=C(O)c1cccc(O/N=C/c2ccccc2C(=O)O)c1", "unit_label": "%", "meas_value": 94}
{"structure_notation": "O=C(O)c1ccc(O/N=C/c2ccc(C(F)(F)F)cc2)cc1", "unit_label": "%", "meas_value": 94}
{"structure_notation": "O=C(O)c1cccc(/C=N/Oc2ccccc2)c1", "unit_label": "%", "meas_value": 79}
{"structure_notation": "Fc1cc(F)cc(/C=N/Oc2cc(Cl)cc(Cl)c2)c1", "unit_label": "%", "meas_value": 61}

(P) O=C(O)c1ccc(O/N=C/c2ccccc2)cc1
(Q) O=C(O)c1ccc(O/N=C/c2ccccc2C(F)(F)F)cc1
Inquiry: Of P and Q , whose reported Formation is the larger number? Your choice should be expressed through its label.
Reply text: P

(1) FC(F)(F)c1ccccc1O/N=C/c1cc(Cl)cc(Cl)c1
(2) Fc1cc(F)cc(O/N=C/c2ccccc2)c1
Inquiry: Input pair: 1 , 2 . Output: entry with lower Formation. Selection: enter the item's label.
Reply text: 1

* * *

system_under_test: Transthyretin (Homo sapiens) (UniProt P02766)
measurement_protocol: Percentage of WT-TTR (3.6 uM) amyloid fibril formation at pH 4.4 upon incubation with the compound (7.2 uM)
observation_type: Formation (%)

Take a look at these entries with their results.
{"structure_notation": "Fc1cc(F)cc(O/N=C/c2cccc(C(F)(F)F)c2)c1", "meas_value": 86}
{"structure_notation": "FC(F)(F)c1cccc(/C=N/Oc2cccc(C(F)(F)F)c2)c1", "meas_value": 83}
{"structure_notation": "FC(F)(F)c1ccc(/C=N/Oc2cccc(C(F)(F)F)c2)cc1", "meas_value": 93}
{"structure_notation": "FC(F)(F)c1cccc(O/N=C/c2c(Cl)cccc2Cl)c1", "meas_value": 21}
{"structure_notation": "O=C(O)c1ccccc1O/N=C/c1ccccc1C(F)(F)F", "meas_value": 34}
{"structure_notation": "O=C(O)c1cccc(O/N=C/c2c(Cl)cccc2Cl)c1", "meas_value": 1}
{"structure_notation": "O=C(O)c1ccccc1/C=N/Oc1ccccc1C(F)(F)F", "meas_value": 75}
{"structure_notation": "FC(F)(F)c1cccc(/C=N/Oc2cc(Cl)cc(Cl)c2)c1", "meas_value": 55}
{"structure_notation": "Fc1cc(F)cc(O/N=C/c2c(Cl)cccc2Cl)c1", "meas_value": 24}
{"structure_notation": "O=C(O)c1cccc(O/N=C/c2cc(F)cc(F)c2)c1", "meas_value": 8}

(I) Clc1cc(Cl)cc(/C=N/Oc2ccccc2)c1
(II) O=C(O)c1cccc(O/N=C/c2ccc(C(F)(F)F)cc2)c1
Inquiry: Which item exceeds the other in Formation, I or II ? Reply briefly: the label of your chosen item.
Reply text: II

* * *

system_under_test: UniProt:P02766
measurement_protocol: Percentage compound remaining at the conclusion of the acid-mediated fibril formation assay (72 h) in absence of TTR, assay conditions, compound (7.2 uM), pH 4.4, 37C
observation_type: Activity (%)

(P) O=C(O)c1ccc(O/N=C/c2cc(Br)c(O)c(Br)c2)cc1
(Q) O=C(O)c1cccc(O/N=C/c2ccccc2C(F)(F)F)c1
Inquiry: Min Activity? P | Q Mark your answer with the label of the selected entry.
Reply text: Q
(Q: 20%, P: 88%)

* * *

system_under_test: Transthyretin (Homo sapiens)
measurement_protocol: Binding stoichiometry to TTR in human blood plasma determined by antibody capture/HPLC method
Type: cell-free
observation_type: Binding stoichiometry

{"structure_notation": "Oc1c(I)cc(/C=N/Oc2ccccc2C(F)(F)F)cc1I", "observation_type": "Binding stoichiometry", "meas_value": 1.71}
{"structure_notation": "O=C(O)c1cccc(/C=N/Oc2ccccc2C(F)(F)F)c1", "observation_type": "Binding stoichiometry", "meas_value": 1.07}
{"structure_notation": "O=C(O)c1cccc(O/N=C/c2ccccc2C(F)(F)F)c1", "observation_type": "Binding stoichiometry", "meas_value": 1}

(a) Oc1c(Br)cc(/C=N/Oc2ccccc2)cc1Br
(b) Oc1c(I)cc(/C=N/Oc2cc(F)cc(F)c2)cc1I
(c) O=C(O)c1cccc(/C=N/Oc2cc(Cl)cc(Cl)c2)c1
Inquiry: Arrange the 3 compounds by rising Binding stoichiometry, starting with the smallest. Output the labels ranked as instructed.
Reply text: c, a, b

* * *

system_under_test: UniProt P02766
measurement_protocol: Percentage compound remaining at the conclusion of the acid-mediated fibril formation assay (72 h), assay conditions compound (7.2 uM), WT-TTR (3.6 uM, pH 4.4, 37C)
observation_type: Activity (%)

{"structure_notation": "Oc1c(I)cc(/C=N/Oc2ccccc2)cc1I", "system_under_test": "UniProt P02766", "unit_label": "%", "Activity": 79}
{"structure_notation": "O=C(O)c1ccc(O/N=C/c2ccccc2C(F)(F)F)cc1", "system_under_test": "UniProt P02766", "unit_label": "%", "Activity": 84}
{"structure_notation": "O=C(O)c1cccc(O/N=C/c2cc(I)c(O)c(I)c2)c1", "system_under_test": "UniProt P02766", "unit_label": "%", "Activity": 77}
{"structure_notation": "O=C(O)c1ccccc1O/N=C/c1cc(Cl)cc(Cl)c1", "system_under_test": "UniProt P02766", "unit_label": "%", "Activity": 74}
{"structure_notation": "O=C(O)c1ccc(/C=N/Oc2ccccc2C(F)(F)F)cc1", "system_under_test": "UniProt P02766", "unit_label": "%", "Activity": 83}
{"structure_notation": "Oc1c(Br)cc(/C=N/Oc2ccccc2C(F)(F)F)cc1Br", "system_under_test": "UniProt P02766", "unit_label": "%", "Activity": 98}

* * *

system_under_test: Transthyretin (Homo sapiens) (UniProt P02766)
measurement_protocol: Percentage of WT-TTR (3.6 uM) amyloid fibril formation at pH 4.4 upon incubation with the compound (7.2 uM)
observation_type: Formation (%)

Use the examples below as a reference point.
{"structure_notation": "Oc1c(Br)cc(/C=N/Oc2ccccc2)cc1Br", "meas_value": 0}
{"structure_notation": "O=C(O)c1cccc(/C=N/Oc2cc(F)cc(F)c2)c1", "meas_value": 6}
{"structure_notation": "O=C(O)c1ccccc1O/N=C/c1cc(Cl)cc(Cl)c1", "meas_value": 1}
{"structure_notation": "O=C(O)c1ccc(O/N=C/c2cc(Br)c(O)c(Br)c2)cc1", "meas_value": 0}
{"structure_notation": "O=C(O)c1cccc(O/N=C/c2ccccc2C(F)(F)F)c1", "meas_value": 1}
{"structure_notation": "O=C(O)c1ccc(/C=N/Oc2ccccc2)cc1", "meas_value": 77}
{"structure_notation": "Clc1cc(Cl)cc(O/N=C/c2c(Cl)cccc2Cl)c1", "meas_value": 62}
{"structure_notation": "O=C(O)c1ccccc1O/N=C/c1cc(I)c(O)c(I)c1", "meas_value": 0}
{"structure_notation": "O=C(O)c1cccc(/C=N/Oc2ccccc2C(F)(F)F)c1", "meas_value": 6}
{"structure_notation": "FC(F)(F)c1ccccc1O/N=C/c1ccccc1", "meas_value": 56}

(A) O=C(O)c1ccc(O/N=C/c2cccc(C(F)(F)F)c2)cc1
(B) Oc1c(Br)cc(/C=N/Oc2ccccc2C(F)(F)F)cc1Br
Inquiry: Dear colleague, could you let me know whether A or B has the lower recorded Formation? Thanks. Kindly state the label of the option you pick.
Reply text: B

* * *

system_under_test: Transthyretin (Homo sapiens) (UniProt P02766)
measurement_protocol: Percentage of WT-TTR (3.6 uM) amyloid fibril formation at pH 4.4 upon incubation with the compound (7.2 uM)
observation_type: Formation (%)

Guide cases for Formation, answers given:
{"structure_notation": "Fc1cc(F)cc(/C=N/Oc2ccccc2C(F)(F)F)c1", "observation_type": "Formation", "meas_value": 75}
{"structure_notation": "O=C(O)c1ccccc1O/N=C/c1ccc(C(F)(F)F)cc1", "observation_type": "Formation", "meas_value": 90}

(P) Oc1c(I)cc(/C=N/Oc2cccc(C(F)(F)F)c2)cc1I
(Q) O=C(O)c1ccc(/C=N/Oc2cc(Cl)cc(Cl)c2)cc1
(R) O=C(O)c1ccc(O/N=C/c2c(Cl)cccc2Cl)cc1
(S) FC(F)(F)c1cccc(/C=N/Oc2ccccc2)c1
(T) Clc1cc(Cl)cc(/C=N/Oc2cc(Cl)cc(Cl)c2)c1
Inquiry: Arrange the 5 compounds by rising Formation, starting with the smallest. Write the labels out in the order the request specifies.
Reply text: R, P, Q, T, S

(P) Oc1c(Br)cc(/C=N/Oc2cccc(C(F)(F)F)c2)cc1Br
(Q) O=C(O)c1ccccc1O/N=C/c1cc(F)cc(F)c1
Inquiry: # compare Formation for P vs Q ; return the one with the smaller value Please indicate the selected item by its label.
Reply text: P

(1) O=C(O)c1ccc(/C=N/Oc2cccc(C(=O)O)c2)cc1
(2) FC(F)(F)c1ccc(/C=N/Oc2cc(Cl)cc(Cl)c2)cc1
Inquiry: Which value of Formation is greater, the one for 1 or the one for 2 ? # respond with the chosen item's label
Reply text: 2
